- System: Cricetinae gen. sp.
- PROTOCOL TEXT: In vivo for cholesterol absorption inhibitory activity using 7-day cholesterol-fed hamster model (expressed as percent change in cholesteryl esters at 50 mg/kg/day)
- Format: functional, Cricetulus griseus
Measured Change accompanies every entry in the list below.
I only need the number, in %, no unit after it.

The cases that follow already have their Change on record.
{"SMILES STRUCTURE": "COc1ccc([C@@H]2[C@@H](CCCc3ccccc3)C(=O)N2c2ccc(SC)cc2)cc1", "Change / %": -70}
{"SMILES STRUCTURE": "CCCCOc1ccc([C@@H]2[C@H](CCCc3ccccc3)C(=O)N2c2ccc(OC)cc2)cc1", "Change / %": -70}

# next molecule below
Briefly, Change measured for COc1ccc([C@@H]2[C@H](CCCCc3ccccc3)C(=O)N2c2ccc(OC)cc2)cc1 : -72
